The following binders are listed with their measured % cells bound values.
TARGET_OR_SYSTEM: T1, mouse IL-12Rβ2 expressed on cells (mouse, UniProt P97378 24-874)
T1 construct: HEK293T cells, stably transduced (cDNA NM_008354); also called mIL-12RB2
T1 sequence: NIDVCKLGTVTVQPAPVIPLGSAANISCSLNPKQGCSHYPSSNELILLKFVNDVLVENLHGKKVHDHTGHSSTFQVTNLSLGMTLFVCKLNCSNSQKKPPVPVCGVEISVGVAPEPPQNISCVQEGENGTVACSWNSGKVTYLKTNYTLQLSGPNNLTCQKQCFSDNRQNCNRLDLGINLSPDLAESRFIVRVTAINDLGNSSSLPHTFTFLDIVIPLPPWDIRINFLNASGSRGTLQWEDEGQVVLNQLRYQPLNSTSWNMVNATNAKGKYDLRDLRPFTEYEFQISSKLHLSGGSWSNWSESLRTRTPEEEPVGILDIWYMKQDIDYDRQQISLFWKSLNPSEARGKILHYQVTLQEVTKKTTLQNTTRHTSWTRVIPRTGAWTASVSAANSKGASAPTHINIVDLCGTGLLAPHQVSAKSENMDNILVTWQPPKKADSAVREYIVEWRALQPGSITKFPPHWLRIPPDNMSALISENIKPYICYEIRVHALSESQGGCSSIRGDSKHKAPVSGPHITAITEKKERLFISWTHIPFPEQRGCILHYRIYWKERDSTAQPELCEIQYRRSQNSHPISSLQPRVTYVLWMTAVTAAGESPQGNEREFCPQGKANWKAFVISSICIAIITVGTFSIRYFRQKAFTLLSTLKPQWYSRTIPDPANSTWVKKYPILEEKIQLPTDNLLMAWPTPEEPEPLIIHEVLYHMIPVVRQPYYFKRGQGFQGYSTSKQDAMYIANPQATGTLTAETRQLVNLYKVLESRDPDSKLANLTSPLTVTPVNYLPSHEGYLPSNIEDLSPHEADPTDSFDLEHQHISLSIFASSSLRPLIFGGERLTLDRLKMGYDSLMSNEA
ASSAY_TEXT: flow cytometry, P.E. VHH on HEK293T cells transiently expressing mIL-12RB2
Write the number in % without appending the unit.

| BINDER | % cells bound [%] |
| --- | --- |
| anti-IL-12Rβ2 VHH clone 3CRHM73 (VHH, not shown: small tags and cut ends, tested as periplasmic extract; also called 21060) VHH: QVQLQESGGGLVQAGGSLSLSCAASGSAFRLNFMGWYRQAPGKQRELVAAINSGGTEIYHDSVKGRFTISRDNADSTVWLQMNSLKPDDTAVYYCAADRGISWSKLAGGMDYWGKGTQVTVSS | 10.4 |
| anti-IL-12Rβ2 VHH clone 3CAHM11 (VHH, not shown: small tags and cut ends, tested as periplasmic extract) VHH: QVQLQESGGGLVQAGGSLRLSCAASGRTFNNYAMAWFRQAPGKEREFIAAITRSDTTLYIDSVKGRFTISRDNAKNTVALQMNSLKPEDTAVYYCAAGMPYSYSDYPRDSKYDYWGRGTQVTVSS | 7.53 |

The reported % cells bound of the binder anti-IL-12Rβ2 VHH clone 3CRHM14 (VHH, not shown: small tags and cut ends, tested as periplasmic extract) VHH: QVQLQESGGGLVQAGGSLRLSCAASGRTFSNYAMAWFRQAPGTEREFVAGLSGSGGDTEFYDDSVKGRFAISRDSAKNTVWLQMNSLKPEDTAVYYCAAATHVVVHYGLVRRRGTYDYWGQGTQVTVSS was 18.6

Measured % cells bound, anti-IL-12Rβ2 VHH clone 3CRHM99 (VHH, not shown: small tags and cut ends, tested as periplasmic extract; also called 21062) VHH: QVQLQESGGGLVQPGGSLRLSCAASGISSSRLHVGWFRQSPGKEREFVAAISLSGGTQAYTDSVKGRFTISGDNVKNTAYLQMNSLRPEDTAVYYCAARERFIWTWSDLTYDYWGQGTQVTVSS : 10.7
